Assay: MTT cell viability assay, Hep G2 cells (serum-free DMEM)
Conditions: human, Hep G2 cells, Cell viability, taxol 20 nM, 72 hr
measured_metric: viability at 72 h, 20 nM (%)
Please respond with the number in % and leave the unit unwritten.

What value of viability at 72 h, 20 nM has been reported for the following compound? CC(=O)O[C@H]1C(=O)[C@@]2(C)[C@H]([C@H](OC(=O)c3ccccc3)[C@]3(O)C[C@H](OC(=O)[C@H](O)[C@@H](NC(=O)c4ccccc4)c4ccccc4)C(C)=C1C3(C)C)[C@]1(OC(C)=O)CO[C@@H]1C[C@@H]2O [Taxol, paclitaxel] 35.4

====

Assay: in vitro
Details: human, Cell viability
measured_metric: viability at 48 h, 5 μM
Note to self: number, then unit, no commentary.

What value of viability at 48 h, 5 μM has been reported for the following compound? `O=C(/C=C/c1ccc(O)c(O)c1)OCCc1ccccc1` 70.2%
